- experimentalTarget: Isocitrate lyase (Mycobacterium tuberculosis, UniProt P9WKK7)
- Sequence (P9WKK7 whole entry): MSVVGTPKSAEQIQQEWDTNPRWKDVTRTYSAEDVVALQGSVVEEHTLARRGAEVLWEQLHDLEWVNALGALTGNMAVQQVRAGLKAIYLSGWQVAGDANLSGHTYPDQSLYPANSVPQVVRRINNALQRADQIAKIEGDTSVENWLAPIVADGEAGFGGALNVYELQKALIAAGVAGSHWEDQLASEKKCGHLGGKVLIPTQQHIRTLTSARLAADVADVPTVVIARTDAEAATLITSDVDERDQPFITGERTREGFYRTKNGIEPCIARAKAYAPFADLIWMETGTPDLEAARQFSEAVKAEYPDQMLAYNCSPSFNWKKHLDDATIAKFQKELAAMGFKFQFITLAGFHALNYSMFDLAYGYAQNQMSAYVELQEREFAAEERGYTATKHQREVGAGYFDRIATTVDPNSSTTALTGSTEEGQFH
- assayInfo: Inhibition of Mycobacterium tuberculosis isocitrate lyase
The label met is reserved for IC50 strictly under 20 µM; not met covers values equal to or above it.

| molecule | labelClass |
| --- | --- |
| O=C(CC[N+](=O)[O-])N1CCN(c2cccc(C(F)(F)F)c2)CC1 | not met |
| CCN1CCN(C(=O)CC[N+](=O)[O-])CC1 | met |
| O=C(CC[N+](=O)[O-])Nc1ccc(Br)cc1 | not met |
| O=C(CC[N+](=O)[O-])Nc1ccc(Cl)cc1 | not met |
| O=C(O)c1cn(C2CC2)c2cc(N3CCN(C(=O)CC[N+](=O)[O-])CC3)c(F)cc2c1=O | met |
| COc1c(N2C(C)CN(C(=O)CC[N+](=O)[O-])CC2C)c(F)cc2c(=O)c(C(=O)O)cn(C3CC3)c12 (stereo unspecified) | met |
| O=C(CC[N+](=O)[O-])N1CCN(c2ccccc2)CC1 | not met |
| CCn1cc(C(=O)O)c(=O)c2cc(F)c(N3CCN(C(=O)CC[N+](=O)[O-])CC3)cc21 | met |
| Cc1cc(NC(=O)CC[N+](=O)[O-])ccc1Br | not met |
| O=C(O)CC[N+](=O)[O-] | not met |
| CCn1cc(C(=O)O)c(=O)c2cc(F)c(N3CCN(C(=O)CC[N+](=O)[O-])CC3C)c(F)c21 (stereo unspecified) | met |

---

Reported MIC values for a set of molecules
- Test system: Mycolicibacterium smegmatis
- assayInfo: Antimycobacterial activity against 6-weeks nutrient starved phase cultures of Mycobacterium smegmatis ATCC 14468 treated for 7 days measured after 4 weeks by agar dilution method
- Format: functional
measure: MIC (µM)

| molecule | unitInfo | sign | observedMeasurement |
| --- | --- | --- | --- |
| O=C(CC[N+](=O)[O-])Nc1ccccc1 | µM | > | 257 |
| CCn1cc(C(=O)O)c(=O)c2cc(F)c(N3CCN(C(=O)CC[N+](=O)[O-])CC3)cc21 | µM | = | 0.95 |
| O=C(CC[N+](=O)[O-])N1CCN(Cc2ccccc2)CC1 | µM | > | 180 |
| CCn1cc(C(=O)O)c(=O)c2cc(F)c(N3CCN(C(=O)CC[N+](=O)[O-])CC3C)c(F)c21 (stereo not drawn) | µM | = | 1.72 |
| Cc1ccc(NC(=O)CC[N+](=O)[O-])cc1 | µM | > | 240 |
| O=C(CC[N+](=O)[O-])Nc1ccc(F)cc1 | µM | = | 236 |
| O=C(O)CC[N+](=O)[O-] | µM | > | 420 |
| CCN1CCN(C(=O)CC[N+](=O)[O-])CC1 | µM | = | 116 |
| O=C(CC[N+](=O)[O-])Nc1ccc(Cl)cn1 | µM | = | 109 |
| CCN(CC)C(=O)CC[N+](=O)[O-] | µM | > | 287 |
| COc1c(N2C(C)CN(C(=O)CC[N+](=O)[O-])CC2C)c(F)cc2c(=O)c(C(=O)O)cn(C3CC3)c12 (stereo not drawn) | µM | = | 0.08 |
| COc1ccc(NC(=O)CC[N+](=O)[O-])cc1 | µM | > | 223 |
| NNC(=O)c1ccncc1 | µM | > | 365 |
